Tested on: Female SA rats
ASSAY: Liver toxicity assay
Type: in vivo
CONDITION_PARAMETERS: rat, i.v. infusion, total dose 75 μmole/kg, serum
Counter-ions that a name gives are not always drawn.
This section presents compounds with their documented Total Bilirubin values.
MEASURED_PROPERTY: Total Bilirubin (mg/dL)

[
  {
    "COMPOUND": "C[C@H]1O[C@@H](n2cc(I)c3c(N)ncnc32)[C@H](O)[C@@H]1O [REF.A, reference compound]",
    "UNIT_INFO": "mg/dL",
    "VAL": 0.76
  },
  {
    "COMPOUND": "CCN(CC)CCc1ccc(Nc2ncnc3c2c(-c2ccccc2)cn3[C@@H]2O[C@H](C)[C@@H](O)[C@H]2O)cc1 [Compound 6]",
    "UNIT_INFO": "mg/dL",
    "VAL": 0.43
  },
  {
    "COMPOUND": "NC[C@H]1O[C@@H](n2nc(Br)c3c(N)ncnc32)[C@H](O)[C@@H]1O [REF.B, HCL, reference compound]",
    "UNIT_INFO": "mg/dL",
    "VAL": 0.30
  },
  {
    "COMPOUND": "OC[C@@H]1O[C@@H](n2cc(-c3ccccc3)c3c(Nc4ccc(CCN5CCNCC5)cc4)ncnc32)[C@H](O)[C@@H]1O [Compound 12]",
    "UNIT_INFO": "mg/dL",
    "VAL": 0.41
  }
]

###

TEST_TARGET: partially purified pig heart adenosine kinase or recombinant human adenosine kinase
ASSAY: AK inhibition
CONDITION_PARAMETERS: 0.5 μM [U-14C] adenosine, pH 7.0, 37° C., 20 minutes
pIC50: −log10 of the molar value.
This section presents compounds with their documented pIC50 values.

[
  {
    "SMILES_STRING": "C[C@H]1O[C@@H](n2cc(-c3cccnc3)c3c(NCc4ccccn4)ncnc32)[C@H](O)[C@@H]1O",
    "TEST_TARGET": "partially purified pig heart adenosine kinase or recombinant human adenosine kinase",
    "pIC50": 6.52
  },
  {
    "SMILES_STRING": "CCN(CC)CCc1ccc(Nc2ncnc3c2c(-c2ccccc2)cn3[C@@H]2O[C@H](C)[C@@H](O)[C@H]2O)cc1",
    "TEST_TARGET": "partially purified pig heart adenosine kinase or recombinant human adenosine kinase",
    "pIC50": 9.00
  },
  {
    "SMILES_STRING": "C[C@H]1O[C@@H](n2cc(-c3ccccc3)c3c(Nc4ccc(CCO)cc4)ncnc32)[C@H](O)[C@@H]1O",
    "TEST_TARGET": "partially purified pig heart adenosine kinase or recombinant human adenosine kinase",
    "pIC50": 9.00
  },
  {
    "SMILES_STRING": "C[C@H]1O[C@@H](n2cc(-c3ccccc3)c3c(Nc4ccc(CC(=O)O)cc4)ncnc32)[C@H](O)[C@@H]1O",
    "TEST_TARGET": "partially purified pig heart adenosine kinase or recombinant human adenosine kinase",
    "pIC50": 7.10
  }
]

###

This section presents compounds with their documented IC50 values.
TEST_TARGET: partially purified pig heart adenosine kinase or recombinant human adenosine kinase
ASSAY: AK inhibition
CONDITION_PARAMETERS: 0.5 μM [U-14C] adenosine, pH 7.0, 37° C., 20 minutes
Structures can show the parent of a compound that is named as a salt.
MEASURED_PROPERTY: IC50 (nM)

[
  {
    "COMPOUND": "C[C@H]1O[C@@H](n2cc(-c3ccc(CN(C)C)cc3)c3c(Nc4ccc(F)cc4)ncnc32)[C@H](O)[C@@H]1O",
    "TEST_TARGET": "partially purified pig heart adenosine kinase or recombinant human adenosine kinase",
    "VAL": 120
  },
  {
    "COMPOUND": "C[C@H]1O[C@@H](n2cc(-c3ccc(/C=C/C(=O)O)cc3)c3c(Nc4ccc(F)cc4)ncnc32)[C@H](O)[C@@H]1O",
    "TEST_TARGET": "partially purified pig heart adenosine kinase or recombinant human adenosine kinase",
    "VAL": 20
  },
  {
    "COMPOUND": "C[C@H]1O[C@@H](n2cc(-c3ccccc3)c3c(Nc4ccc(CCN(C)C)cc4)ncnc32)[C@H](O)[C@@H]1O",
    "TEST_TARGET": "partially purified pig heart adenosine kinase or recombinant human adenosine kinase",
    "VAL": 1
  },
  {
    "COMPOUND": "C[C@H]1O[C@@H](n2cc(-c3ccc(CCC(=O)O)cc3)c3c(Nc4ccc(F)cc4)ncnc32)[C@H](O)[C@@H]1O",
    "TEST_TARGET": "partially purified pig heart adenosine kinase or recombinant human adenosine kinase",
    "VAL": 45
  },
  {
    "COMPOUND": "C[C@H]1O[C@@H](n2cc(-c3ccccc3)c3c(NCc4ccncc4)ncnc32)[C@H](O)[C@@H]1O",
    "TEST_TARGET": "partially purified pig heart adenosine kinase or recombinant human adenosine kinase",
    "VAL": 67
  },
  {
    "COMPOUND": "C[C@H]1O[C@@H](n2cc(-c3ccccc3)c3c(Nc4ccc(NC(=N)N)cc4)ncnc32)[C@H](O)[C@@H]1O",
    "TEST_TARGET": "partially purified pig heart adenosine kinase or recombinant human adenosine kinase",
    "VAL": 6
  },
  {
    "COMPOUND": "NCCc1ccc(Nc2ncnc3c2c(-c2ccccc2)cn3[C@@H]2O[C@@H](CO)[C@@H](O)[C@H]2O)cc1",
    "TEST_TARGET": "partially purified pig heart adenosine kinase or recombinant human adenosine kinase",
    "VAL": 1
  },
  {
    "COMPOUND": "C[C@H]1O[C@@H](n2cc(-c3ccccc3)c3c(Nc4ccc(CC(=O)N5CCNCC5)cc4)ncnc32)[C@H](O)[C@@H]1O",
    "TEST_TARGET": "partially purified pig heart adenosine kinase or recombinant human adenosine kinase",
    "VAL": 1
  },
  {
    "COMPOUND": "C[C@H]1O[C@@H](n2cc(I)c3c(NCc4ccccn4)ncnc32)[C@H](O)[C@@H]1O",
    "TEST_TARGET": "partially purified pig heart adenosine kinase or recombinant human adenosine kinase",
    "VAL": 70
  },
  {
    "COMPOUND": "C[C@H]1O[C@@H](n2cc(-c3cccnc3)c3c(Nc4ccccc4)ncnc32)[C@H](O)[C@@H]1O",
    "TEST_TARGET": "partially purified pig heart adenosine kinase or recombinant human adenosine kinase",
    "VAL": 55
  },
  {
    "COMPOUND": "C[C@H]1O[C@@H](n2cc(-c3ccccc3)c3c(Nc4ccc(C(N)=NO)cc4)ncnc32)[C@H](O)[C@@H]1O [Compound 37, hydrochloride]",
    "TEST_TARGET": "partially purified pig heart adenosine kinase or recombinant human adenosine kinase",
    "VAL": 5
  },
  {
    "COMPOUND": "C[C@H]1O[C@@H](n2cc(-c3ccc(C(=O)N4CCNCC4)cc3)c3c(Nc4ccc(F)cc4)ncnc32)[C@H](O)[C@@H]1O [Compound 199, hydrochloride salt]",
    "TEST_TARGET": "partially purified pig heart adenosine kinase or recombinant human adenosine kinase",
    "VAL": 550
  },
  {
    "COMPOUND": "CCN(CC)CCNC(=O)c1ccc(-c2cn([C@@H]3O[C@H](C)[C@@H](O)[C@H]3O)c3ncnc(Nc4ccc(F)cc4)c23)cc1 [Compound 200, hydrochloride]",
    "TEST_TARGET": "partially purified pig heart adenosine kinase or recombinant human adenosine kinase",
    "VAL": 200
  },
  {
    "COMPOUND": "C[C@H]1O[C@@H](n2cc(I)c3c(NCc4nc5ccccc5[nH]4)ncnc32)[C@H](O)[C@@H]1O",
    "TEST_TARGET": "partially purified pig heart adenosine kinase or recombinant human adenosine kinase",
    "VAL": 500
  },
  {
    "COMPOUND": "OC[C@@H]1O[C@@H](n2cc(-c3ccccc3)c3c(Nc4ccc(CCN5CCNCC5)cc4)ncnc32)[C@H](O)[C@@H]1O",
    "TEST_TARGET": "partially purified pig heart adenosine kinase or recombinant human adenosine kinase",
    "VAL": 0.3
  },
  {
    "COMPOUND": "C[C@H]1O[C@@H](n2cc(-c3ccccc3)c3c(Nc4ccc(C(=N)N)cc4)ncnc32)[C@H](O)[C@@H]1O",
    "TEST_TARGET": "partially purified pig heart adenosine kinase or recombinant human adenosine kinase",
    "VAL": 1
  },
  {
    "COMPOUND": "OC[C@@H]1O[C@@H](n2cc(I)c3c(NCc4ccccn4)ncnc32)[C@H](O)[C@@H]1O",
    "TEST_TARGET": "partially purified pig heart adenosine kinase or recombinant human adenosine kinase",
    "VAL": 220
  },
  {
    "COMPOUND": "CCN(CC)CCNCCc1ccc(Nc2ncnc3c2c(-c2ccccc2)cn3[C@@H]2O[C@H](C)[C@@H](O)[C@H]2O)cc1",
    "TEST_TARGET": "partially purified pig heart adenosine kinase or recombinant human adenosine kinase",
    "VAL": 1
  },
  {
    "COMPOUND": "CCN(CC)CCNC(=O)c1ccc(Nc2ncnc3c2c(-c2ccccc2)cn3[C@@H]2O[C@H](C)[C@@H](O)[C@H]2O)cc1",
    "TEST_TARGET": "partially purified pig heart adenosine kinase or recombinant human adenosine kinase",
    "VAL": 0.5
  },
  {
    "COMPOUND": "C[C@H]1O[C@@H](n2cc(-c3cccc(NC(=N)N)c3)c3c(Nc4ccc(F)cc4)ncnc32)[C@H](O)[C@@H]1O",
    "TEST_TARGET": "partially purified pig heart adenosine kinase or recombinant human adenosine kinase",
    "VAL": 7
  }
]
